molecular target: SpCas9 (Streptococcus pyogenes serotype M1); assay: Strand displacement assay (SDA) / cumulative activity assay (CAA), SpCas9 primary screen; type: biochemical; settings: Primary Screen (150 min); replicate 2
Sequence (Q99ZW2 whole entry): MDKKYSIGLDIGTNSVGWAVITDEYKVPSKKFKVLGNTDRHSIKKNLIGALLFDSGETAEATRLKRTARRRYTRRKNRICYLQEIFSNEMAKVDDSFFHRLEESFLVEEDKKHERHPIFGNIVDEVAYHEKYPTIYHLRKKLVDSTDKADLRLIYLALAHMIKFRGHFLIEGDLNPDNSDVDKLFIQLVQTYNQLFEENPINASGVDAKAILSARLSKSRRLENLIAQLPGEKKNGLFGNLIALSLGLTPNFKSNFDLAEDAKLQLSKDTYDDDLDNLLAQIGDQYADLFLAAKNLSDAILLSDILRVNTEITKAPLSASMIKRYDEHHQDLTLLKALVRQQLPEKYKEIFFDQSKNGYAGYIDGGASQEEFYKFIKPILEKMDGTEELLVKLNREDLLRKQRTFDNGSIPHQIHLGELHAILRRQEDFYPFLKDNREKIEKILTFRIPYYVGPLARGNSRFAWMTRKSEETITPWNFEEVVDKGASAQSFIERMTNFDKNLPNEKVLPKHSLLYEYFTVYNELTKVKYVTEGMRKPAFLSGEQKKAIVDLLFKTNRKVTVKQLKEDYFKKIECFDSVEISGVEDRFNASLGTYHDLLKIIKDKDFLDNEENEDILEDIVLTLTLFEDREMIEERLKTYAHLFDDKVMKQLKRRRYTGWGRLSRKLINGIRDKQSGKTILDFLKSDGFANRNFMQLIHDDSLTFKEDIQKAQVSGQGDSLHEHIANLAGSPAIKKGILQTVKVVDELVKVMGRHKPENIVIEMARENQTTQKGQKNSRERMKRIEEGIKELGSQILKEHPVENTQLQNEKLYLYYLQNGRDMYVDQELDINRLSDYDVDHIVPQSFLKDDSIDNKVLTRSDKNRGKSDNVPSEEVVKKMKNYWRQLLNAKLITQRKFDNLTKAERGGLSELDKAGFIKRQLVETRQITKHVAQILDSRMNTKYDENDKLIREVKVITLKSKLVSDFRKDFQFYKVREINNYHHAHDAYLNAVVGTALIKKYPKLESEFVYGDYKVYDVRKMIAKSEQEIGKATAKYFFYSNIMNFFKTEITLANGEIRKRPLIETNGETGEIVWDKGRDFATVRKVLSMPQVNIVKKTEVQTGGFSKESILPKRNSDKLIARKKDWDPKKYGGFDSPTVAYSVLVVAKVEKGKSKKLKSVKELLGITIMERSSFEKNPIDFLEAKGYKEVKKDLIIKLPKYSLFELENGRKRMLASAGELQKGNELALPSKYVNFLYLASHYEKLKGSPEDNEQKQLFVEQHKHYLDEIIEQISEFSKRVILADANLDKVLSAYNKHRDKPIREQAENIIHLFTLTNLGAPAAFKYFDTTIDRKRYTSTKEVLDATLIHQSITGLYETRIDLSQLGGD
result-type: Normalized Z score 2
Could you respond with only the numeric value?

>  <compound>
Cc1ccc(-c2nc(CN3CCCC(C(=O)Nc4cc(C)ccc4O)C3)no2)cc1 (stereo not shown)

>  <Normalized Z score 2>
0.14

$$$$
>  <compound>
Cl.Cl.Fc1cc(-c2cccc3ncc(-c4cnn(C5CCNCC5)c4)nc23)cc(F)c1CN1CCOCC1

>  <Normalized Z score 2>
0.35

$$$$
>  <compound>
O=C1NC(=S)C(=C2CCCC2)S1

>  <Normalized Z score 2>
0.24

$$$$

// next entry
Sure, the documented Normalized Z score 2 for O=C(Nc1nnc(C2CC2)s1)c1ccc2ncsc2c1 is 0.07
